The measured values listed here are drawn from patent US20230074436A1.

Target: human alpha-synuclein monomer (human, UniProt P37840 1-140)
Assay: SPR (Biacore 8K), IgG captured on anti-human Fc, aSyn monomer injected
Metric: Kd (nM)
Reply with just the number (in nM).

Binder	Kd [nM]
HC5_LC4 (antibody, V domains shown, humanized 20H4 IgG) VH: EVQLVESGGGLVQPGGSLRLSCAASGFTFSNAAMYWVRQAPGKGLELLARIRTKPNNYATYHADSVKGRFTISRDDSKNTVYLQMNSLRAEDTAVYYCTADMATGDYWGQGTLVTVSS VL: EIVMTQSPATLSLSPGERATLSCKASQNINKNLDWYQQKPGQAPRLLIYSTNNLQTGIPARFSGSGSGTDFTLTISSLQPEDFAVYYCYQYKSAWTFGQGTKVEIK	8.48
HC2_LC5 (antibody, V domains shown, humanized 20H4 IgG) VH: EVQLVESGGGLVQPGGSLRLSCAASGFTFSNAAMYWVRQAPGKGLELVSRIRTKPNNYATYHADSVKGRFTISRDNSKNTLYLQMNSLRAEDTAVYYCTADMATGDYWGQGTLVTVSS VL: EIVMTQSPATLSLSPGERATLSCKASQNINKNLDWYQQKPGQAPRPLIYSTNNLQTGIPARFSGSGSGTDFTLTISSLQPEDFAVYYCYQYKSAWTFGQGTKVEIK	4.11

Now let's try a different one.
Looking up HC2_LC2 (antibody, V domains shown, humanized 20H4 IgG) VH: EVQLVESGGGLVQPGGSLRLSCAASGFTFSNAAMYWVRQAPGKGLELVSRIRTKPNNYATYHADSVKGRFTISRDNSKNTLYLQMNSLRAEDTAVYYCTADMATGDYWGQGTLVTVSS VL: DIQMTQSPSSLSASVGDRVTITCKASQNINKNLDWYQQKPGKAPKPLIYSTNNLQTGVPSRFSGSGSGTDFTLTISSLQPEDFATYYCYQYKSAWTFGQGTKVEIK , I found its Kd recorded as 2.33
